- System name: 5-hydroxytryptamine receptor 1A (Homo sapiens, UniProt P08908)
- Sequence (P08908 whole entry): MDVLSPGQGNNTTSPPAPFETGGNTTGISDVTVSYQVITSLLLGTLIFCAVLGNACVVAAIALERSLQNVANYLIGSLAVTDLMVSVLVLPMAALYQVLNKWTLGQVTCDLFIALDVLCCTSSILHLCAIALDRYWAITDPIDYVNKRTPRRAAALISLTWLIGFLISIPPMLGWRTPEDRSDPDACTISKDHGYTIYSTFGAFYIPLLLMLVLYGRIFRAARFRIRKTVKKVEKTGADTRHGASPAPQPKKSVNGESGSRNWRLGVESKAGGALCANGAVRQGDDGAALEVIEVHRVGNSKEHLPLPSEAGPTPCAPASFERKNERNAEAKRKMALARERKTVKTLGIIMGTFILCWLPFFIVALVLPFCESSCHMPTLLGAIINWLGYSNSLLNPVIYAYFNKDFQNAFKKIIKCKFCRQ
- Assay: GPCRScan assay: inhibition of 5-HT1A
- Design: radioligand conc. used [nm] 0.5 – 1.0, parental cells stable CHO
- Measurement parameters: read-out: Ki
Attribute measured: Ki (nM)
Reply numerically in nM, unit not repeated.

// query Report measured Ki; entry is `Cc1noc(C)c1-c1cnc2cc(C(=O)NCCC[n+]3ccc(N(C)C)cc3)ccn12`
// result 212

---

- System name: Alpha-2B adrenergic receptor (Homo sapiens, UniProt P18089)
- Sequence (P18089 whole entry): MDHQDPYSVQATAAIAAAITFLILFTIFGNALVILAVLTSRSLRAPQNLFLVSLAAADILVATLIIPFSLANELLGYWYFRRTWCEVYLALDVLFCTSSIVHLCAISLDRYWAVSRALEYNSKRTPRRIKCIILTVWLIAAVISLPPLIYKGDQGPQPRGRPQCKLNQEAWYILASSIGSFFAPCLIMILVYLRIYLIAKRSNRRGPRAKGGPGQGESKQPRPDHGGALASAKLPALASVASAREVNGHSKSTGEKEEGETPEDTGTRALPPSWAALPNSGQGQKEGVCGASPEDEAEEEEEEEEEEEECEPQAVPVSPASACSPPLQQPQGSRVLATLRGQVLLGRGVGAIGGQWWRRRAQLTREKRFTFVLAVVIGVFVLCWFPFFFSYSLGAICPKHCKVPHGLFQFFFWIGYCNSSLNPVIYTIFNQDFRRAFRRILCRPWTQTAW
- Assay: GPCRScan assay: inhibition of Alpha2B
- Design: radioligand conc. used [nm] 1.5 – 2.0, parental cells HEKT
- Measurement parameters: read-out: Ki
Attribute measured: Ki (nM)
Response body: numeric value in nM, unit text excluded.

// query Please report Ki for the following compound: `Cc1noc(C)c1-c1cnc2cc(C(=O)NCCC[n+]3ccc(N(C)C)cc3)ccn12`
// result 2760

The values you see were collected from ChEMBL document CHEMBL5463728.
